// reported pIC50 for each item listed
biological target: phosphor-Axl (Homo sapiens (Human), UniProt P30530); assay: TAM Enzymatic Assay (HTRF), Axl; conditions: recombinant autophosphorylated Axl, 60 min, room temperature
Sequence (P30530 26-894): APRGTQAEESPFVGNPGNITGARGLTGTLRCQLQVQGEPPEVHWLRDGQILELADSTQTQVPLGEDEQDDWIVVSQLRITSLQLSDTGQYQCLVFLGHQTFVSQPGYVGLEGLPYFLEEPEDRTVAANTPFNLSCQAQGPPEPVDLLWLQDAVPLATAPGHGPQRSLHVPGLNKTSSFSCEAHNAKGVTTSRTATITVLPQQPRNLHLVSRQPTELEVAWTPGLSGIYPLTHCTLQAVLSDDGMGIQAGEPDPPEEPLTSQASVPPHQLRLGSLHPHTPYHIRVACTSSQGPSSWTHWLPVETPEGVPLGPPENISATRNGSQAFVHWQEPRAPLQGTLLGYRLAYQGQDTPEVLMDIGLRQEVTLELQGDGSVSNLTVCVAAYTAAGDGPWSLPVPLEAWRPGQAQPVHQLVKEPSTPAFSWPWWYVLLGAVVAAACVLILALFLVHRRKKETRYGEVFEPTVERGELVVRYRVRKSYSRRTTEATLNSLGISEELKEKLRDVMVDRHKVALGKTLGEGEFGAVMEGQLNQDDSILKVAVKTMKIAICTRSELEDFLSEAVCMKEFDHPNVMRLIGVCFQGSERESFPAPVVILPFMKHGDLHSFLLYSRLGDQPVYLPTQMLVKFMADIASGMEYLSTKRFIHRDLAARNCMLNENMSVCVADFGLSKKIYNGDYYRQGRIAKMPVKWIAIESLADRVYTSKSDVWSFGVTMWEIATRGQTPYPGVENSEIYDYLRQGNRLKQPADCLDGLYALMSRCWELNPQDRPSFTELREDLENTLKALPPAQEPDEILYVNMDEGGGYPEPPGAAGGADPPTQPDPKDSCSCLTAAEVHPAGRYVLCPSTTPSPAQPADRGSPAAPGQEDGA
pIC50: −log10 of the molar value.

Use these answered entries as a reference point.
Given Cc1c(-c2ccnn2C)cc(C(=O)Nc2ccc(-c3cc(C4CCN(C(=O)C(C)C)CC4)n4ncnc(N)c34)cc2)c(=O)n1-c1cccnc1 [Example 134] , state its recorded pIC50.
≥ 8.30

Now consider Cc1c(-c2cccnc2)c(=O)c(C(=O)Nc2ccc(-c3cc(C4CCN(C(=O)C(C)C)CC4)n4ncnc(N)c34)cc2)cn1C1CC1 [Example 147] .
≥ 8.30

Then what about the compound CC(C)n1cc(C(=O)Nc2ccc(-c3cc(C4CCN(C(=O)N(C)C)CC4)n4ncnc(N)c34)cc2)c(=O)n(-c2ccc(F)cc2)c1=O [Example 65] ?
≥ 8.30

For Cc1c(C#N)cc(C(=O)Nc2ccc(-c3cc(C4CCN(C(=O)C(C)C)CC4)n4ncnc(N)c34)cc2)c(=O)n1-c1ccccc1 [Example 111] then?
≥ 8.30

Param item: Cc1c(-c2ccccn2)c(=O)c(C(=O)Nc2ccc(-c3cc(C4CCN(C(=O)C(C)C)CC4)n4ncnc(N)c34)cc2)cn1C1CC1 [Example 141]
≥ 8.30

More entries:
Would you mind telling me what pIC50 value was observed for CN1CCC(c2cc(-c3ccc(NC(=O)c4cccn(-c5ccccc5)c4=O)cc3F)c3c(N)ncnn23)CC1 [Example 22] ?
≥ 8.30

Thanks! And Cc1c(-c2cscn2)cc(C(=O)Nc2ccc(-c3cc(C4CCN(C(=O)C(C)C)CC4)n4ncnc(N)c34)cc2)c(=O)n1-c1cncc(F)c1 [Example 103] ?
≥ 8.30

Same lookup for CC(C)C(=O)N1CCC(c2cc(-c3ccc(NC(=O)c4cn(C5CC5)c(=O)n(-c5cccnc5)c4=O)cc3)c3c(N)ncnn23)CC1 [Example 140] , please.
≥ 8.30

Please give the result for Cc1cc(C(=O)Nc2ccc(-c3cc(C4CCN(C(=O)C(C)C)CC4)n4ncnc(N)c34)cc2)c(=O)n(-c2cncc(F)c2)c1C [Example 121] too.
≥ 8.30

Continue with CCc1cc(-c2ccc(NC(=O)c3cccn([C@H](CC)CO)c3=O)cc2)c2c(N)ncnn12 [Example 4]
< 7.00

Request: Cc1c(-c2ncccn2)cc(C(=O)Nc2ccc(-c3cc(C4CCN(C(=O)C(C)C)CC4)n4ncnc(N)c34)cc2)c(=O)n1-c1ccccc1 [Example 108]
≥ 8.30

And CC(C)C(=O)N1CCC(c2cc(-c3ccc(NC(=O)c4cc(C5CC5)nn(-c5ccccc5)c4=O)cc3)c3c(N)ncnn23)CC1 [Example 117] ?
≥ 8.30

Moving on to the next compound: CC(=O)N1CCC(c2cc(-c3ccc(NC(=O)c4cccn(-c5ccc(F)cc5)c4=O)cc3)c3c(N)ncnn23)CC1 [Example 25]
≥ 8.30

---

molecular target: Tyro3 (Homo sapiens (Human), UniProt Q06418)
Sequence (Q06418 41-890): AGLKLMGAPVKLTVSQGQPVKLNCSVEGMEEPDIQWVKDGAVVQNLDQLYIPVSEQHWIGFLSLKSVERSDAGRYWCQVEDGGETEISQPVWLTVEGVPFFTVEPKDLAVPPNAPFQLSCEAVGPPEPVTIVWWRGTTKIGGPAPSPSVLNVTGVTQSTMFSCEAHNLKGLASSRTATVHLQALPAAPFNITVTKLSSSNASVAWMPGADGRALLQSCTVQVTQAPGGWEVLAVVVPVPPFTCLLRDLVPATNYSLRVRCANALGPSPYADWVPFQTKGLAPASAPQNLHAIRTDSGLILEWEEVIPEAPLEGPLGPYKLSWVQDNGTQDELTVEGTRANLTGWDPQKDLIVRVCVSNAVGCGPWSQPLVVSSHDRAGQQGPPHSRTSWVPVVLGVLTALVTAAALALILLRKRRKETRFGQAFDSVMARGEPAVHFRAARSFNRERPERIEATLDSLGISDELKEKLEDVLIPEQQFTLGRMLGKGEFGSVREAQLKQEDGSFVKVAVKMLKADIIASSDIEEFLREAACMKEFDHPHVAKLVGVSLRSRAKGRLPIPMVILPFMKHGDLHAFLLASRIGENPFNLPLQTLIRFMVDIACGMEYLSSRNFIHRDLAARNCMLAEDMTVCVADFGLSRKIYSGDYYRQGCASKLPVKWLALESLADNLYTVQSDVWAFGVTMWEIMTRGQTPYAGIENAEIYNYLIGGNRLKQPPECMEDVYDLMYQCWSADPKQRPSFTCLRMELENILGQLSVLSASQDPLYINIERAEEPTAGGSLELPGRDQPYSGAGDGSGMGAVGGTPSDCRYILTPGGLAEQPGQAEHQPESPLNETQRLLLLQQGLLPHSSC
pIC50: −log10 of the molar value.
measured_metric: pIC50

Record request: pIC50 value, item CC(C)C(=O)N1CCC(c2cc(-c3ccc(NC(=O)c4cn(C(C)C)c(=O)n(-c5cc(F)ccc5F)c4=O)cc3)c3c(N)ncnn23)CC1 [Example 76]
< 7.00

Same for Cc1c(-c2ccnn2C)cc(C(=O)Nc2ccc(-c3cc(C4CCN(C(=O)C(C)C)CC4)n4ncnc(N)c34)cc2)c(=O)n1-c1ccccn1 [Example 123]
< 7.00

More entries:
Would you mind telling me what pIC50 value was observed for Nc1ncnn2c(C3CCN(CCO)CC3)cc(-c3ccc(NC(=O)c4cccn(-c5ccc(F)cc5)c4=O)cc3F)c12 [Example 55] ?
8.00 to 8.30

---

pIC50: −log10 of the molar value.
As an illustration, consider measured pIC50 for compounds on c-Mer (Homo sapiens (Human)).
Sequence (Q12866 21-999): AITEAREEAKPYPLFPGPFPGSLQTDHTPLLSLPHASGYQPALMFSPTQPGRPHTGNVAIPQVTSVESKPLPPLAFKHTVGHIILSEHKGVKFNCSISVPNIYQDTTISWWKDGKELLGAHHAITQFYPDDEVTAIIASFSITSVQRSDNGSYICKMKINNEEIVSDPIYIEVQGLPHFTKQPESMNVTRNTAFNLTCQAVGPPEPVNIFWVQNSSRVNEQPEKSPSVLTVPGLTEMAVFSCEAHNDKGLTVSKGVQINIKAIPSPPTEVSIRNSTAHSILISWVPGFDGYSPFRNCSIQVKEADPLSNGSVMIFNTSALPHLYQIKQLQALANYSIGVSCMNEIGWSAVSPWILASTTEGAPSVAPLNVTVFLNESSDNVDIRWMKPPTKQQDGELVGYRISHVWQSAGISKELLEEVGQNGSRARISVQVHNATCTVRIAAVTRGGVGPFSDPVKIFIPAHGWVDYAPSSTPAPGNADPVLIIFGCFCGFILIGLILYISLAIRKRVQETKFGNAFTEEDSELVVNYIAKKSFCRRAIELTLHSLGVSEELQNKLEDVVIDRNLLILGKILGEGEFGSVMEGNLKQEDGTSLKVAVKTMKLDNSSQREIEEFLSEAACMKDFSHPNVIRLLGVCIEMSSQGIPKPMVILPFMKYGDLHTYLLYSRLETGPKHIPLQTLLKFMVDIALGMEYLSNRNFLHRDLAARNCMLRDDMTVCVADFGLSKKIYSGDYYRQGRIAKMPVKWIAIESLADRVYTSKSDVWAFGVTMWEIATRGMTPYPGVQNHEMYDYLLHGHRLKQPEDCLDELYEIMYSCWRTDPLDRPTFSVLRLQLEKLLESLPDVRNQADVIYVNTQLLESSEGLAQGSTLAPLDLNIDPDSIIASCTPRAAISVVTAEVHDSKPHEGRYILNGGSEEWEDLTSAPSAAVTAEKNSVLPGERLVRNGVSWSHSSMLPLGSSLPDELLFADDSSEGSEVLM

Consider the compound shown here: CS(=O)(=O)N1CCC(c2cc(-c3ccc(NC(=O)c4cccn(-c5ccc(F)cc5)c4=O)cc3)c3c(N)ncnn23)CC1 What is its recorded pIC50?
≥ 8.30

Would you mind doing N#C[C@H]1CC[C@@H](c2cc(-c3ccc(NC(=O)c4cccn(-c5ccc(F)cc5)c4=O)cc3)c3c(N)ncnn32)CC1 as well?
≥ 8.30

Quick one: CCc1cc(-c2ccc(NC(=O)c3cccn(Cc4ccccc4)c3=O)cc2)c2c(N)ncnn12
< 7.00

New cases:
Suppose we examine the compound Cc1c(Br)cc(C(=O)Nc2ccc(-c3cc(C4CCN(C(=O)C(C)C)CC4)n4ncnc(N)c34)cc2)c(=O)n1-c1cncc(F)c1 ; what pIC50 value has been reported?
≥ 8.30

// repeat for CC(C)C(=O)N1CCC(c2cc(-c3ccc(NC(=O)c4cc5c(n(-c6cccnc6)c4=O)CC(C)(C)CC5=O)cc3)c3c(N)ncnn23)CC1 and report
≥ 8.30

Also CC(C)n1cc(C(=O)Nc2ccc(-c3cc(C4CCC(N(C)C)CC4)n4ncnc(N)c34)cc2)c(=O)n(-c2ccccc2)c1=O (stereo not drawn) ?
≥ 8.30

---

molecular target: Tyro3 (Homo sapiens (Human))
Property: IC50; scope: individual molecules

Which IC50 is reported for this molecule? Nc1ncnn2c(C3CCOCC3)cc(-c3ccc(NC(=O)c4cccn(-c5ccc(F)cc5)c4=O)cc3F)c12
10 to 100 nM

Also need CCc1cc(-c2ccc(NC(=O)c3cccn(Cc4ccccc4)c3=O)cc2)c2c(N)ncnn12 , thanks.
> 100 nM

What do we get for CC(C)C(=O)N1CCC(c2cc(-c3ccc(NC(=O)c4cn(C5CC5)c(=O)n(-c5ccccc5)c4=O)cc3)c3c(N)ncnn23)CC1 ?
> 100 nM

Continuing:
Param item = CS(=O)(=O)N1CCC(c2cc(-c3ccc(NC(=O)c4cccn(-c5ccccc5)c4=O)cc3F)c3c(N)ncnn23)CC1 ; retrieve measured IC50.
10 to 100 nM

---

Hi! I'm sharing some IC50 results obtained with Tyro3 (Homo sapiens (Human), UniProt Q06418).

Please review the entries below; each comes with its answer.
Requested read-out IC50, target or system Tyro3 (Homo sapiens (Human), UniProt Q06418), entry CCN(C)C(=O)N1CCC(c2cc(-c3ccc(NC(=O)c4cc5c(n(-c6ccc(F)cc6)c4=O)CCCC5=O)cc3F)c3c(N)ncnn23)CC1 [Example 58]
> 100 nM

Another compound to look at: COC(=O)N1CCC(c2cc(-c3ccc(NC(=O)c4cccn(-c5ccc(F)cc5)c4=O)cc3F)c3c(N)ncnn23)CC1 [Example 39]
10 to 100 nM

And then CC(C)C(=O)N1CCC(c2cc(-c3ccc(NC(=O)c4cn(C5CC5)c(=O)n(-c5ccccn5)c4=O)cc3)c3c(N)ncnn23)CC1 [Example 144] , what is it?
> 100 nM

Continue with Nc1ncnn2c(C3CCNCC3)cc(-c3ccc(NC(=O)c4cccn(-c5ccc(F)cc5)c4=O)cc3)c12 [Example 33]
10 to 100 nM

Next compound: CC(C)n1cc(C(=O)Nc2ccc(-c3cc(C4CN(C(=O)C5CC5)C4)n4ncnc(N)c34)cc2)c(=O)n(-c2ccccc2)c1=O [Example 94]
> 100 nM

Continuing:
Any idea what IC50 came out for CN(C)C(=O)N1CCC(c2cc(-c3ccc(NC(=O)c4cccn(-c5ccccc5)c4=O)cc3)c3c(N)ncnn23)CC1 [Example 44] on Tyro3 (Homo sapiens (Human), UniProt Q06418)?
> 100 nM

Check Cc1c(Br)cc(C(=O)Nc2ccc(-c3cc(C4CCN(C(=O)C(C)C)CC4)n4ncnc(N)c34)cc2)c(=O)n1-c1ccccn1 [Example 118] too.
> 100 nM

Now the same for Cc1cc(C(=O)Nc2ccc(-c3cc(C4CCN(C(=O)C(C)C)CC4)n4ncnc(N)c34)cc2)c(=O)n(-c2cccnc2)c1C [Example 132]
> 100 nM

# repeat for CC(C)C(=O)N1CCC(c2cc(-c3ccc(NC(=O)c4cn(C(C)C)c(=O)n(-c5cccnc5)c4=O)cc3)c3c(N)ncnn23)CC1 [Example 78]
10 to 100 nM

Also need CCc1cc(-c2ccc(NC(=O)c3cccn([C@H](C)CO)c3=O)cc2)c2c(N)ncnn12 [Example 3] , thanks.
> 100 nM

# repeat for Cc1c(Br)cc(C(=O)Nc2ccc(-c3cc(C4CCN(C(=O)C(C)C)CC4)n4ncnc(N)c34)cc2)c(=O)n1-c1cncc(F)c1 [Example 101]
> 100 nM

// same read-out, input: Cc1c(N2CCOCC2)cc(C(=O)Nc2ccc(-c3cc(C4CCN(C(=O)C(C)C)CC4)n4ncnc(N)c34)cc2)c(=O)n1-c1ccccc1 [Example 110]
> 100 nM

Another compound to check: Nc1ncnn2c(C3CCNCC3)cc(-c3ccc(NC(=O)c4cccn(-c5ccc(F)cc5)c4=O)cc3F)c12 [Example 35]
5 to 10 nM

---

Dear all, this message contains IC50 results, target or system Tyro3 (Homo sapiens (Human), UniProt Q06418).

Item Cc1cc(C(=O)Nc2ccc(-c3cc(C4CCN(C(=O)C(C)C)CC4)n4ncnc(N)c34)cc2)c(=O)n(-c2cncc(F)c2)c1C with Tyro3 (Homo sapiens (Human), UniProt Q06418) - IC50?
> 0.1 µM

Further cases:
What measured IC50 is associated with CCc1cc(-c2ccc(NC(=O)c3cccn([C@H](CC)CO)c3=O)cc2)c2c(N)ncnn12 on Tyro3 (Homo sapiens (Human), UniProt Q06418)?
> 0.1 µM

And what about the molecule CCN(C)C(=O)N1CCC(c2cc(-c3ccc(NC(=O)c4cccn(-c5ccc(F)cc5)c4=O)cc3)c3c(N)ncnn23)CC1 ?
> 0.1 µM

Now give it for CCn1cc(C(=O)Nc2ccc(-c3cc(C4CCN(C(=O)[C@@H](C)O)CC4)n4ncnc(N)c34)cc2)c(=O)n(-c2ccc(F)cc2)c1=O too.
0.01 to 0.1 µM

Quick one: CC(C)C(=O)N1CCC(c2cc(-c3ccc(NC(=O)c4cc(C#C[C@H](C)O)cn(-c5ccccc5)c4=O)cc3)c3c(N)ncnn23)CC1
> 0.1 µM

COC(=O)N1CCC(c2cc(-c3ccc(NC(=O)c4cccn(-c5ccccc5)c4=O)cc3)c3c(N)ncnn23)CC1 ?
> 0.1 µM

Lookup Cc1c(C(N)=O)cc(C(=O)Nc2ccc(-c3cc(C4CCN(C(=O)C(C)C)CC4)n4ncnc(N)c34)cc2)c(=O)n1-c1ccccc1 [Example 111a]
> 0.1 µM

Query CC(C)C(=O)N1CCC(c2cc(-c3ccc(NC(=O)c4cn(C(C)C)cc(-c5cncc(F)c5)c4=O)cc3)c3c(N)ncnn23)CC1 next
> 0.1 µM

Record: Nc1ncnn2c(C3CCN(CCO)CC3)cc(-c3ccc(NC(=O)c4cc5c(n(-c6ccc(F)cc6)c4=O)CCCC5=O)cc3)c12
> 0.1 µM

Please give the result for Cc1c(C#N)cc(C(=O)Nc2ccc(-c3cc(C4CCN(C(=O)C(C)C)CC4)n4ncnc(N)c34)cc2)c(=O)n1-c1ccccc1 too.
> 0.1 µM

Likewise for CC(C)n1cc(C(=O)Nc2ccc(-c3cc(C4CCN(CC(=O)N(C)C)CC4)n4ncnc(N)c34)cc2)c(=O)n(-c2ccccc2)c1=O ?
0.01 to 0.1 µM

// next record Cc1cc(C(=O)N(C)C)ncc1-c1cc(-c2ccc(NC(=O)c3cn(C(C)C)c(=O)n(-c4ccccc4)c3=O)cc2)c2c(N)ncnn12
> 0.1 µM

Do the same for Cc1cc(-c2ccc(NC(=O)c3cccn(-c4ccccc4)c3=O)cc2)c2c(N)ncnn12 please
> 0.1 µM

This collection of values is drawn from patent US9981975B2.
